# maps each entry to its IC50
- System Name: cAMP-dependent protein kinase (PKA) (Homo sapiens, UniProt P22694+P17612+P22612)
- Assay Explanation: Inhibition of PKA
- Type: protein assay
Measured Attribute: IC50

>>> experimental_result("N[C@H](COc1cncc(-c2ccc3[nH]nc(Cl)c3c2)c1)Cc1c[nH]c2ccccc12")
"6.8 nM"
>>> experimental_result("Nc1cc2[nH]nc(Cl)c2cc1-c1cncc(OC[C@@H](N)Cc2c[nH]c3ccccc23)c1")
"58 nM"
>>> experimental_result("N[C@H](COc1cncc(-c2cc3c(-c4ccco4)n[nH]c3cn2)c1)Cc1ccccc1")
"274 nM"
>>> experimental_result("Cc1n[nH]c2cnc(-c3cncc(OC[C@@H](N)Cc4ccccc4)c3)cc12")
"32 nM"
